Assign %inhibition to each entry below.
- assayedTarget: UniProtKB P0DTD1
- experimentalDetails: biochemical
- testContext: 100 µM; inhibitor
Counter-ions that a name gives are not always drawn.
Numbers only, in %.

Known %inhibition results, listed for orientation:
{"compound": "Cc1ccc(Sc2ccccc2N2CCNCC2)c(C)c1 [Vortioxetine]", "outcomeMeasure": "%inhibition", "readoutNumber": 4.926}
{"compound": "CCN1CCN(Cc2ccc(Nc3ncc(F)c(-c4cc(F)c5nc(C)n(C(C)C)c5c4)n3)nc2)CC1", "outcomeMeasure": "%inhibition", "readoutNumber": 4.001}
{"compound": "CNC(=O)c1cc(Oc2ccc(NC(=O)Nc3ccc(Cl)c(C(F)(F)F)c3)cc2)ccn1 [Sorafenib Tosylate]", "outcomeMeasure": "%inhibition", "readoutNumber": 10.76}

Proceeding to the next compound to report its %inhibition.
For the compound Cc1ccc(Sc2ccccc2N2CCNCC2)c(C)c1 [Vortioxetine (Lu AA21004) HBr] , report %inhibition.
12.23
